Below is a list of entries, each paired with its recorded melting point value.

[[record]]
compound = "CCN1CCCC1CNC(=O)C1CCNCC1 (stereo not drawn)"
result = "191 to 194 °C"

[[record]]
compound = "CNc1cccc([N+](=O)[O-])c1"
result = "65 to 67 °C"

[[record]]
compound = "O=S(=O)(Cl)c1ccc2c(c1)S(=O)(=O)NC=N2"
result = "247 to 249 °C"


Then this compound:
stdin: Report melting point for Nc1ncc(Cc2ccc(F)c(F)c2)s1 please.
stdout: 97 to 99 °C

###

parameter: melting point

[[record]]
molecule = "CCOC(=O)c1c(CCCO)cnc2nc(C(=O)OC)nn12"
result = "86 to 88 °C"

[[record]]
molecule = "NCc1ccc(CN2CCC(O)CC2)cc1"
result = "128 to 130 °C"

[[record]]
molecule = "N#Cc1cc(N)ccc1OCC(F)(F)F"
result = "78 to 80 °C"

[[record]]
molecule = "O=C(CCCl)Nc1ccccn1"
result = "104 to 106 °C"

[[record]]
molecule = "COc1ccc(CCNc2nnc(S)s2)cc1OC"
result = "189 to 191 °C"


stdin: Report melting point for Cc1nc(-c2cccc(N)c2)n[nH]1 please.
stdout: 56 to 58 °C

stdin: Report melting point for CC(C)[C@H](C(=O)O)N(C)C please.
stdout: 154 to 156 °C

stdin: Report melting point for O=C(O)CNC(=O)c1ccc(Br)cc1 please.
stdout: 160 to 162 °C

stdin: Report melting point for NCc1ccc(Oc2ccc(F)cc2)nc1 please.
stdout: 51 to 53 °C
